Would you mind telling me the reported IC50 of each entry?
- ASSAYED TARGET: human Gal-1 (hGal-1)
- Sequence (P09382 2-135 limits assumed): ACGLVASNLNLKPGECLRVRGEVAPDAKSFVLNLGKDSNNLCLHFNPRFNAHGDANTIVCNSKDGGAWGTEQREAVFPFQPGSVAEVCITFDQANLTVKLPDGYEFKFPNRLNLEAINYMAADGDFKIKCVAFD
- ASSAY PROCEDURE: Competitive binding assay: binding of biotinylated hGal-1 to microplate-adsorbed asialofetuin (ASF)
- CONDITION: Activities on hGal-1; mean values of several measurements
Mention the unit after the number when you answer.

# compound CC(C)(C)OC(=O)N1CCC(C2=NOC(C[C@H]3O[C@H](CO)[C@H](O)[C@H](n4cc(-c5cc(F)c(Cl)cc5F)nn4)[C@H]3O)C2)CC1 (stereo partly drawn) [Ex 1.95] ; its IC50 = 1.21 µM

# compound Cc1ccc(-c2cn([C@H]3[C@@H](O)[C@@H](CO)O[C@H](Cc4cc(C(C)(C)C)no4)[C@@H]3OC(N)=O)nn2)c(F)c1F [Example 2.45] ; its IC50 = 2.42 µM

# compound CC(C)(C)c1cc(C[C@H]2O[C@H](CO)[C@H](O)[C@H](n3cc(-c4cc(F)c(F)c(F)c4)nn3)[C@H]2OCC(=O)N2CC[C@@H](O)C2)no1 [Example 2.39] ; its IC50 = 6.68 µM

# compound CO[C@@H]1[C@@H](n2cc(-c3cc(F)cc(F)c3)nn2)[C@@H](O)[C@@H](CO)O[C@@H]1CC1CC(C2CCN(C(=O)OC(C)(C)C)CC2)=NO1 (stereo partly drawn) [Ex 1.118] ; its IC50 = 1.47 µM

# compound CO[C@@H]1[C@@H](n2cc(-c3cc(F)c(F)c(F)c3)nn2)[C@@H](O)[C@@H](CO)O[C@@H]1Cc1cc(C2CCCC2)no1 [Ex 1.222] ; its IC50 = 8 µM

# compound CCOC(C)(C)c1cc(C[C@H]2O[C@H](CO)[C@H](O)[C@H](n3cc(-c4ccc(C)c(F)c4F)nn3)[C@H]2OC)on1 [Ex 1.327] ; its IC50 = 4.17 µM

---

- ASSAYED TARGET: human Gal-1 (hGal-1)
- ASSAY PROCEDURE: Competitive binding assay: binding of biotinylated hGal-1 to microplate-adsorbed asialofetuin (ASF)
- CONDITION: Activities on hGal-1; mean values of several measurements
ASSAY METRIC: IC50

# molecule COc1ccc(C2=NO[C@@H](C[C@H]3O[C@H](CO)[C@H](O)[C@H](n4cc(-c5cc(F)c(F)c(F)c5)nn4)[C@H]3O)C2)cc1 [Ex 1.04] ; its IC50 = > 100 µM

# molecule CO[C@@H]1[C@@H](n2cc(-c3cc(F)c(F)c(F)c3)nn2)[C@@H](O)[C@@H](CO)O[C@@H]1CC1CN(C2CCN(S(C)(=O)=O)CC2)C(=O)O1 (mixture of isomers) [Example 5.04] ; its IC50 = 0.79 µM

# molecule CC(C)(C)OC(=O)N1CCC(c2cc(C[C@H]3O[C@H](CO)[C@H](O)[C@H](n4cc(-c5cc(F)c(F)c(F)c5)nn4)[C@H]3OCC(=O)O)no2)CC1 [Example 2.21] ; its IC50 = 0.69 µM

# molecule OC[C@H]1O[C@H](C[C@@H]2CC(C3CCCCC3)=NO2)[C@H](O)[C@@H](n2cc(-c3cc(F)c(F)c(F)c3)nn2)[C@H]1O [Ex 1.07] ; its IC50 = 4.9 µM

# molecule CO[C@@H]1[C@@H](n2cc(-c3cc(F)c(F)c(F)c3)nn2)[C@@H](O)[C@@H](CO)O[C@@H]1Cc1cc(C2CCN(C(=O)OC(C)(C)C)CC2)on1 [Ex 1.50] ; its IC50 = 0.57 µM
